Target: T1, Spy_(1-124) (UniProt P77754 24-147)
T1 construct: source: E. coli BL21 (DE3), purified (Ni-NTA, cation exchange, SEC); not shown: His6, N-terminal, cleaved; SUMO, N-terminal, cleaved
T1 sequence (looked up): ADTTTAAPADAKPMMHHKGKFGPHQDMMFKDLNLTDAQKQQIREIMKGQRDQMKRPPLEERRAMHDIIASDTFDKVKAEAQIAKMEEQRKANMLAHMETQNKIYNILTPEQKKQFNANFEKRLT
Assay: BLI; Octet RED96; client biotinylated and loaded on streptavidin sensors; Spy or Spy variant in solution at 0.25, 0.5, 1, 1.5 and 2 μM; 40 mM HEPES, 150 mM NaCl, pH 7.5; Kd calculated as koff/kon
Conditions: both partners purified
Property Name: pKd
# pKd: negative log10 of molar concentration; output just the value

Lab book: pKd of Im7 H40W L53A I54A (natural protein, biotin (EZ-link NHS-biotin, 1:1 molar ratio of biotin to protein), Im7 (colicin E7 immunity protein) with H40W L53A I54A; Spy was made with an N-terminal His6-SUMO tag that was cleaved; also called Im7AAW; partially folded client; source: purified by a similar procedure to Spy) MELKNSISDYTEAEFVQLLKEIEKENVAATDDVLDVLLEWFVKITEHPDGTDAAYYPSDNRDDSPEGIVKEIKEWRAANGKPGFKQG noted as 6.03
